Target: HLA-DP DPA1*02:01/DPB1*05:01 (Homo sapiens, UniProt P04440+P20036, A65V/A84E/F191V/F64L/G113D/G114E/K142R/L158P/M116V/M62Q/P115A/Q81R/R125K/T114A/T199I/T259P/V234M)
Sequence (P20036 29-260 A42M/M62Q/Q81R/T114A/K142R/L158P/F191V/T259P, other chains not shown): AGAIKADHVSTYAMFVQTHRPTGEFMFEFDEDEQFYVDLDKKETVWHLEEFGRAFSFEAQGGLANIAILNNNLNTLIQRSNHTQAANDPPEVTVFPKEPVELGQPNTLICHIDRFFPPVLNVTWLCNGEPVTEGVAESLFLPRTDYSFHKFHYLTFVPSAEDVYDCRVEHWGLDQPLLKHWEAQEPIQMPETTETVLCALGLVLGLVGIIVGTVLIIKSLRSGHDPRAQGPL
Test: biochemical
Type: binding
Conditions: read-out: Binding capacity/IC50 (nM) DPA1*02:01 DPB1*05:01
Ends that are not written are not given here.
log10 of IC50: recorded values
Readout Name: log10 of IC50 (log10 of the value in nM)

>  <Substance>
YAKMRSAHTNDVKQL-NH2 [RT(354-368)]

>  <log10 of IC50>
3.34

$$$$
>  <Substance>
LNKIVRMYSPVSILDI-NH2 [p24(138-153)]

>  <log10 of IC50>
2.34

$$$$
>  <Substance>
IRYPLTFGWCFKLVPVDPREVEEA-NH2 [nef(133-156)]

>  <log10 of IC50>
3.68

$$$$
>  <Substance>
VVIQDNSDIKVVPRRKAKII-NH2 [integrase(249-268)]

>  <log10 of IC50>
2.52

$$$$
>  <Substance>
SEELRSLYNTVATLYCVHQ-NH2 [p17(72-90)]

>  <log10 of IC50>
3.28

$$$$
